target: chimeric BTLA of humanised-BTLA mice (human extracellular region, murine transmembrane and signaling … (human; mouse, UniProt Q7TSA3 184-306, limits assumed); assay: cell-based or functional assay
Sequence (Q7TSA3 other isoform, or with tags, fused parts or gaps mutant limits assumed): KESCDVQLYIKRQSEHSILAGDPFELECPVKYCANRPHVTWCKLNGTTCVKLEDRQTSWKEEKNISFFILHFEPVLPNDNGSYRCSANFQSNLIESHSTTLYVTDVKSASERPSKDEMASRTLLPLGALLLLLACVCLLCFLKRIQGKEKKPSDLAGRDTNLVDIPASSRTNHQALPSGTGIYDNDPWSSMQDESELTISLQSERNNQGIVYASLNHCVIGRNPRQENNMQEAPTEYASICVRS
Overview of recorded AntiCD3/CD28 (CD4 T cell proliferation) repeat 1, % inhibition for various binders
Report as a plain number; the unit % is understood.

* 7A1 (antibody, IgG1, V domains shown) VH: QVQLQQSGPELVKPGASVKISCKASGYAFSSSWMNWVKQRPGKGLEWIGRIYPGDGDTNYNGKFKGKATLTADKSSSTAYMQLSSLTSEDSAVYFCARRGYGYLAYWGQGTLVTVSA VL: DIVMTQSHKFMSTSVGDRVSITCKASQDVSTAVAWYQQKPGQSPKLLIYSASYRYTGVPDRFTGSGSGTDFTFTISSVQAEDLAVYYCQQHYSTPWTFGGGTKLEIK | 14

Field: next binder
GET /values?readout=AntiCD3/CD28 (CD4 T cell proliferation) repeat 1, % inhibition&item= 11.5.1 (antibody, IgG1, V domains shown) VH: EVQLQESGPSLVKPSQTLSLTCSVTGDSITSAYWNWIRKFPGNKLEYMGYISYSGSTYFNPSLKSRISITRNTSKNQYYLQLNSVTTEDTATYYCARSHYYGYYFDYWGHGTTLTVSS VL: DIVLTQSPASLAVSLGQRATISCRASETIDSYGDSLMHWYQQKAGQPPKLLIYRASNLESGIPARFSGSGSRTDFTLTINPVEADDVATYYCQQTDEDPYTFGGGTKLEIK
21
